- Tested on: IL-8 release in d-U937 cells
- PROTOCOL_DESCRIPTION: LPS-induced IL-8 release in d-U937 cells
- Assay type: cell-based, human
- DETAILS: Homo sapiens, dU937
The label is 1.0 for IC50 below 8 nM and 0.0 for IC50 equal to or exceeding 8 nM.

Does the reported IC50 of COCC(=O)Nc1cc(Oc2ccc(NC(=O)Nc3cc(C(C)(C)C)nn3-c3ccc(C)cc3)cc2Br)ccn1 stay below 8 nM? 1.0

What would you report for COCC(=O)Nc1cc(Oc2ccc(NC(=O)Nc3cc(C(C)(C)C)nn3-c3ccc(C)cc3)c(Cl)c2Cl)ncn1 ? 0.0

Same again, this time with Cc1ccc(-n2nc(C(C)(C)C)cc2NC(=O)Nc2ccc(Oc3cc(NC(=O)NCCN(C)C)ncn3)c(Cl)c2Cl)cc1 1.0

And for CNCC(=O)Nc1cc(Oc2ccc(NC(=O)Nc3cc(C(C)(C)C)nn3-c3ccc(OC)cc3)c(Cl)c2Cl)ccn1 ? 1.0

What about COCC(=O)Nc1cc(Oc2ccc(NC(=O)Nc3cc(C(C)(C)C)nn3-c3ccc(C)cc3)c3[nH]ncc23)ccn1 ? 0.0

What do we get for COCC(=O)Nc1cc(Oc2ccc(NC(=O)Nc3cc(C(C)(C)C)nn3-c3ccc(C)cc3)c(S(C)(=O)=O)c2)ccn1 ? 0.0

Now try CN(C)CC(=O)Nc1cc(Oc2ccc(NC(=O)Nc3cc(C(C)(C)C)nn3-c3ccc(CO)cc3)c(Cl)c2Cl)ccn1 . 1.0

Thanks! And COCC(=O)Nc1cc(Oc2ccc(NC(=O)Nc3cc(C(C)(C)C)nn3-c3ccc(C)cc3)cc2S(C)(=O)=O)ccn1 ? 0.0

Item: CNC(=O)Nc1cc(Oc2ccc(NC(=O)Nc3cc(C(C)(C)C)nn3-c3ccc(CO)c(OC)c3)c(Cl)c2Cl)ccn1 1.0

Queued: COc1ccc(-n2nc(C(C)(C)C)cc2NC(=O)Nc2ccc(OCc3ccnc(NC(=O)N4CCCC4)c3)c(Cl)c2Cl)cc1 0.0

Would you mind doing COCC(=O)Nc1cc(Oc2ccc(NC(=O)Nc3cc(C(C)(C)C)nn3-c3ccc(C)cc3)c3c2CCCC3)ccn1 as well? 0.0

And what about the compound CNC(=O)Nc1cc(Oc2ccc(NC(=O)Nc3cc(C(C)(C)C)nn3-c3ccc(C)cc3)c(Cl)c2Cl)ncn1 ? 1.0

Request: COCC(=O)Nc1cc(Oc2ccc(NC(=O)Nc3cc(C(C)(C)C)nn3-c3ccc(C)cc3)c3cccnc23)ccn1 1.0

Param item: COCC(=O)Nc1cc(Oc2ccc(NC(=O)Nc3cc(C(C)(C)C)nn3-c3ccc(C)cc3)c(F)c2)ccn1 0.0

----------
- System: IL-8 release in d-U937 cells
- PROTOCOL_DESCRIPTION: LPS-induced IL-8 release in d-U937 cells
- Format: cell-based, human
- DETAILS: Homo sapiens, dU937
VALUE_KIND: IC50

I have this compound here, CNC(=O)Nc1cc(COc2ccc(NC(=O)Nc3cc(C(C)(C)C)nn3-c3ccc(C)cc3)c(Cl)c2Cl)ccn1 , and I need its recorded IC50. 4.8 nM

Repeat with CN(C)[C@H]1CCN(C(=O)Nc2cc(Oc3ccc(NC(=O)Nc4cc(C(C)(C)C)nn4-c4ccc(O)cc4)c(Cl)c3Cl)ccn2)C1 3.6 nM

Moving on to COc1ccc(-n2nc(C(C)(C)C)cc2NC(=O)Nc2ccc(Oc3ccnc(NC(=O)N4CCCC4(C)C)c3)c(Cl)c2Cl)cc1 2.6 nM

How about Cc1ccc(-n2nc(C3(C)CCCCC3)cc2NC(=O)Nc2ccc(Oc3ccnc(NC(=O)N4CCCC4)c3)c(Cl)c2Cl)cc1 ? 2.7 nM

Same for COCC(=O)Nc1cc(COc2ccc(NC(=O)Nc3cc(C(C)(C)C)nn3-c3ccc(OC)cc3)c3cccnc23)ccn1 17100 nM

Do the same for COCC(=O)Nc1cc(Oc2ccc(NC(=O)Nc3cc(C(C)(C)C)nn3-c3ccc(C)cc3)c(F)c2F)ccn1 please 2.2 nM

Follow-up item: COCC(=O)Nc1cc(Oc2c(NC(=O)Nc3cc(C(C)(C)C)nn3-c3ccc(C)cc3)ccc(F)c2F)ccn1 > 1770 nM
